# Test system: P388 leukemia ip, CD2F1 mice, survival T/C
# procedureSummary: NCI In Vivo Anticancer Drug Screen. Data for tumor model P388 Leukemia (intraperitoneal) in CD2F1 (CDF1) mice
# experimentalContext: endpoint: median survival time; dose: 25.0 mg/kg/injection; schedule: Q01DX009 (ip); vehicle: saline with Tween-80; higher = longer survival
Toxic doses and inconclusive results are not listed.

# molecule, T/C
records = [
    ("O=C(OCC1C=C(OC(=O)c2ccccc2)C(=O)C(OC(=O)c2ccccc2)O1)c1ccccc1 (stereo not drawn)", "86 % of control"),
    ("C=CC(C)(C)C12CC3C(=O)N/C(=C\\c4cnc[nH]4)C(=O)N3C1Nc1ccccc12 (stereo not drawn)", "92 % of control"),
    ("O=C1NC(Cc2ccccc2)C(=O)NC1Cc1ccccc1 (stereo not drawn)", "103 % of control"),
    ("CCCN1COC(OCC)C(C)(C)C1 (stereo not drawn)", "110 % of control"),
    ("NC(=O)c1cnc(N)nc1", "98 % of control"),
    ("OC(c1cc2c(Cl)cc(Cl)cc2c2cc(C(F)(F)F)ccc12)C1CCCCN1 (stereo not drawn)", "100 % of control"),
    ("S=c1[nH]c2cc(Cl)ccc2o1", "117 % of control"),
    ("FC(F)(F)c1ccc(-c2ccc(OCCN3CCCC3)cc2)cc1", "86 % of control"),
    ("CC(c1ccccc1)N1C(=O)CSC1=S (stereo not drawn)", "100 % of control"),
    ("CC(C)(C)N(OC(=O)c1ccc([N+](=O)[O-])cc1)c1ccccc1", "98 % of control"),
    ("CC(=O)NC1C(S[As](C)C)OC(COC(C)=O)C(OC(C)=O)C1OC(C)=O (stereo not drawn)", "113 % of control"),
    ("COc1cc(NC(=O)CN(CCCl)CCCl)cc(OC)c1OC", "157 % of control"),
    ("C=C1C(=O)C23C(O)C1CCC2C12COC3(O)C(O)C1C(C)(C)CCC2OC(C)=O (stereo not drawn)", "110 % of control"),
    ("CC(=O)OCc1ncccc1OC(C)=O", "104 % of control"),
    ("CC/C(=C\\c1ccccc1)[N+](=O)[O-]", "123 % of control"),
    ("CCOC1(C)C=CC(=NC(C)(C)C)C=C1 (stereo not drawn)", "97 % of control"),
    ("CCSCCC(N)C(=O)O (stereo not drawn)", "100 % of control"),
    ("COC1/C=C/OC2(C)Oc3c(C)c(O)c4c(O)c(c(/C=N/NC5C6CC7CC(C6)CC5C7)c(O)c4c3C2=O)NC(=O)/C(C)=C/C=C/C(C)C(O)C(C)C(O)C(C)C(OC(C)=O)C1C (stereo not drawn)", "109 % of control"),
]

---

Property: T/C; scope: individual molecules
# System: P388 leukemia ip, CD2F1 mice, survival T/C
# procedureSummary: NCI In Vivo Anticancer Drug Screen. Data for tumor model P388 Leukemia (intraperitoneal) in CD2F1 (CDF1) mice
# experimentalContext: endpoint: median survival time; dose: 100.0 mg/kg/injection; schedule: Q04DX003 (ip); vehicle: saline with Tween-80; higher = longer survival
Toxic doses and inconclusive results are not listed.
assayEndpoint: T/C

# molecule, testValue
rows = [
    ("CC(=O)C1C(=O)OC(C)=C(C(=O)O)C1=O (stereo not drawn)", "109 % of control"),
    ("O=c1ccnc(Sc2ccc([N+](=O)[O-])cc2[N+](=O)[O-])[nH]1", "99 % of control"),
    ("O=C(c1cccs1)C1Cc2ccccc2C1=O (stereo not drawn)", "95 % of control"),
    ("CC1(C)SC(C(NC(=O)COc2ccccc2)C(=O)O)NC1C(=O)O (stereo not drawn)", "95 % of control"),
    ("O=C1OC(c2ccc(Cl)cc2)Sc2ccccc21 (stereo not drawn)", "102 % of control"),
    ("CNC(=O)Nc1c(C)cccc1C", "105 % of control"),
    ("O=C(Nc1ccc(Cl)cc1C(=O)c1ccccn1)c1ccccc1", "94 % of control"),
    ("CC(=O)Nn1cnc2ccccc2c1=O", "93 % of control"),
    ("c1ccc2c(c1)nc1snc(-n3ccnc3)n12", "111 % of control"),
    ("Cc1nc(Cl)c(C#N)nc1C", "100 % of control"),
    ("N#C/C(=C\\c1c[nH]c2ccccc12)C(N)=O", "100 % of control"),
    ("CCCCCCCCCCCCC(=O)N1CCOCC1", "100 % of control"),
    ("O=C(c1ccccc1)C1CCCN(c2ccccc2)S1(=O)=O (stereo not drawn)", "98 % of control"),
    ("Cc1ccc(Cl)c([N+](=O)[O-])c1N", "104 % of control"),
    ("CC12COC(=O)CC1CCC1C2CCC2(C)C1CCC2(C)O (stereo not drawn)", "95 % of control"),
    ("CCCCCC1(c2ccccc2)CCCC(C#N)C1=O (stereo not drawn)", "101 % of control"),
    ("Cc1ccccc1Nc1n[nH]c(=S)s1", "100 % of control"),
    ("[Ni+2].[S-]CC[S-]", "92 % of control"),
    ("COC(=O)C(O)c1cccc(OC)c1 (stereo not drawn)", "113 % of control"),
    ("C=CN1C(=O)NC2(CCCCC2)C1=O", "90 % of control"),
    ("CCO/C=C1\\SC(=S)N(c2ccco2)C1=O", "118 % of control"),
    ("O=NN(CCCl)C(=O)N[C@H]1CCCC[C@@H]1Cl", "90 % of control"),
    ("CC(=O)Oc1ccc[nH]c1=O", "113 % of control"),
]

---

# Tested on: P388 leukemia ip, CD2F1 mice, survival T/C
# procedureSummary: NCI In Vivo Anticancer Drug Screen. Data for tumor model P388 Leukemia (intraperitoneal) in CD2F1 (CDF1) mice
# experimentalContext: endpoint: median survival time; dose: 50.0 mg/kg/injection; schedule: Q01DX009 (ip); vehicle: Klucel (hydroxypropylcellulose) (HPC); higher = longer survival
# Experimental: The antitumor activity of compounds was measured in mice bearing transplantable tumors. Survival or tumor size were measured and the results are expressed as the measurement made in the treated group (T) divided by the measurement made in the vehicle treated control group (C). The tumor model used in this assay is P388 Leukemia (intraperitoneal) in CD2F1 (CDF1) mice
Toxic doses and inconclusive results are not listed.
assayEndpoint: T/C

# compound, assayEndpoint, testValue
measured = [
    ("COc1ccc(/C=C2\\SC(=S)NC2=O)cc1OC", "T/C", "94 % of control"),
    ("CN(C)c1ccc2c(Cl)cc(Cl)nc2c1", "T/C", "107 % of control"),
    ("CCCCC1C(C#N)C(=O)NC(=O)C1C#N (stereo not given)", "T/C", "100 % of control"),
    ("C[N+]1(C)[B]C[N+](C)(C)[B-]1", "T/C", "92 % of control"),
    ("Oc1ccccc1C=Nc1ccc2nc(SC3CCCC3)sc2c1", "T/C", "93 % of control"),
]

---

Quick reference for T/C among some compounds
# System: P388 leukemia ip, CD2F1 mice, survival T/C
# procedureSummary: NCI In Vivo Anticancer Drug Screen. Data for tumor model P388 Leukemia (intraperitoneal) in CD2F1 (CDF1) mice
# experimentalContext: endpoint: median survival time; dose: 50.0 mg/kg/injection; schedule: Q01DX005 (ip); vehicle: saline with Tween-80; higher = longer survival
Inconclusive results and toxic doses are left out.

# compound, T/C
records = [
    ("Nc1ccc(N=Nc2ccncc2)c2ccccc12", "100 % of control"),
    ("CC(C)CCCC(C)C1CCC2C3CCC4CC5(C)C(CC4(C)C3CCC12C)C(=O)C5(Cl)Cl (stereo not given)", "96 % of control"),
    ("COc1ccc(C2[C@@H]3CCc4ccccc4C3=NN2C(C)=O)cc1 (stereo not given in full)", "93 % of control"),
    ("Cc1ccc(-c2cc(N)n(-c3nnc(-c4ccccc4)c(-c4ccccc4)n3)n2)cc1", "105 % of control"),
    ("O=C(Nc1ccc(Cl)c(Cl)c1Cl)/C(Cl)=C1/Sc2ccccc2NC1=O", "108 % of control"),
    ("O=C(NN1C(=O)CS(=O)(=O)C1c1ccc(Cl)cc1Cl)c1ccncc1 (stereo not given)", "100 % of control"),
    ("CCC(C)C(NC=O)C(=O)O (stereo not given)", "93 % of control"),
    ("CC1(C)CC(=O)CC(C(Cl)(Cl)Cl)O1 (stereo not given)", "99 % of control"),
    ("ClSC(c1ccccc1)(c1ccccc1)c1ccccc1", "103 % of control"),
    ("CC(/C=N/NC(=O)C[n+]1ccccc1)=N/NC(=O)C[n+]1ccccc1", "95 % of control"),
    ("O=C(N/C(=C\\c1ccccc1)C(=O)N1CCN(Cc2ccccc2)CC1)c1ccccc1", "89 % of control"),
    ("CCOC(=O)C(Cc1ccccc1)C1(C)SCCN1C(=O)OCC (stereo not given)", "105 % of control"),
    ("Cc1ccc2c(c1)C1(SCCC(=O)N1c1ccc(Cl)cc1)C(=O)N2 (stereo not given)", "103 % of control"),
    ("c1cncc(-c2c3ccccc3cc3ccc4ccccc4c23)c1", "104 % of control"),
    ("O=C(CCn1[nH]c(=O)c(Cl)c(Cl)c1=O)NNc1ccc([N+](=O)[O-])cc1[N+](=O)[O-]", "92 % of control"),
]
